As shown below, each of these compounds has a reported log10 of IC50 value.
Target: flkGST (Homo sapiens, UniProt P35968)
Sequence (P35968 786-1356 limits assumed): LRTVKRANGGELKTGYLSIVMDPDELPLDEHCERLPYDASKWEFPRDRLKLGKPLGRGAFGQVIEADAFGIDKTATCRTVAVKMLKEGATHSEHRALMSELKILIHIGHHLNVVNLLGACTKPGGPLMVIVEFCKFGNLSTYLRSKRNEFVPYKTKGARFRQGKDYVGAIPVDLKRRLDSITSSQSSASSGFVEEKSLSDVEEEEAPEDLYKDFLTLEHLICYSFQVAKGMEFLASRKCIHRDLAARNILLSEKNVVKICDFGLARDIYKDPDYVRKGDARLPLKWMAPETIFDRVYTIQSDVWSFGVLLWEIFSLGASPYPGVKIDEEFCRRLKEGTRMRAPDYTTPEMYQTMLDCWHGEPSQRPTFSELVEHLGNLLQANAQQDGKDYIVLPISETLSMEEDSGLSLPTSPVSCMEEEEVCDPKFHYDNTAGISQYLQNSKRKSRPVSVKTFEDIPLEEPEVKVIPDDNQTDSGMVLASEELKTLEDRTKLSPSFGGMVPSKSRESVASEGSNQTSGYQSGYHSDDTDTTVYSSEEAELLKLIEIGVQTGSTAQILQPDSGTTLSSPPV
Note the log scale: values are log10 of IC50 expressed in nM.

The examples below pair each entry with its known result.
compound: CN(C)S(=O)(=O)c1ccc2c(c1)/C(=C/c1ccc3[nH]ccc3c1)C(=O)N2 [Example 183]
log10 of IC50: 3.19
--
compound: CCOC(=O)c1c(C)[nH]c(/C=C2\C(=O)Nc3ccc(S(=O)(=O)NC)cc32)c1CCCN(C)C [Example 137]
log10 of IC50: 3.88
--
compound: CNS(=O)(=O)c1ccc2c(c1)/C(=C/c1[nH]c(C)c(C(=O)O)c1CCCN(C)C)C(=O)N2 [Example 138]
log10 of IC50: 4.25

[in] Lab request: please report log10 of IC50 under test system flkGST (Homo sapiens, UniProt P35968) for COc1ccc2c(c1)/C(=C/c1[nH]c3ccccc3c1CCCN(C)C)C(=O)N2 [Example 151]
[out] 2.85

[in] Query log10 of IC50 on flkGST (Homo sapiens, UniProt P35968) for CNS(=O)(=O)c1ccc2c(c1)/C(=C/c1ccc3[nH]ccc3c1)C(=O)N2 [Example 176]
[out] 3.32

[in] Could you share what log10 of IC50 was measured for Cc1c[nH]c(/C=C2\C(=O)Nc3ccccc32)c1CCC(=O)O [Example 215] , tested on flkGST (Homo sapiens, UniProt P35968)?
[out] 1.90

[in] // map O=C(O)CCc1c(/C=C2\C(=O)Nc3cc(-c4ccccc4)ccc32)[nH]c2c1CCCC2 [Example 206] to recorded log10 of IC50 (system: flkGST (Homo sapiens, UniProt P35968))
[out] 1.78

* * *

Target: EGFR (Homo sapiens)
Sequence (P00533 25-1210): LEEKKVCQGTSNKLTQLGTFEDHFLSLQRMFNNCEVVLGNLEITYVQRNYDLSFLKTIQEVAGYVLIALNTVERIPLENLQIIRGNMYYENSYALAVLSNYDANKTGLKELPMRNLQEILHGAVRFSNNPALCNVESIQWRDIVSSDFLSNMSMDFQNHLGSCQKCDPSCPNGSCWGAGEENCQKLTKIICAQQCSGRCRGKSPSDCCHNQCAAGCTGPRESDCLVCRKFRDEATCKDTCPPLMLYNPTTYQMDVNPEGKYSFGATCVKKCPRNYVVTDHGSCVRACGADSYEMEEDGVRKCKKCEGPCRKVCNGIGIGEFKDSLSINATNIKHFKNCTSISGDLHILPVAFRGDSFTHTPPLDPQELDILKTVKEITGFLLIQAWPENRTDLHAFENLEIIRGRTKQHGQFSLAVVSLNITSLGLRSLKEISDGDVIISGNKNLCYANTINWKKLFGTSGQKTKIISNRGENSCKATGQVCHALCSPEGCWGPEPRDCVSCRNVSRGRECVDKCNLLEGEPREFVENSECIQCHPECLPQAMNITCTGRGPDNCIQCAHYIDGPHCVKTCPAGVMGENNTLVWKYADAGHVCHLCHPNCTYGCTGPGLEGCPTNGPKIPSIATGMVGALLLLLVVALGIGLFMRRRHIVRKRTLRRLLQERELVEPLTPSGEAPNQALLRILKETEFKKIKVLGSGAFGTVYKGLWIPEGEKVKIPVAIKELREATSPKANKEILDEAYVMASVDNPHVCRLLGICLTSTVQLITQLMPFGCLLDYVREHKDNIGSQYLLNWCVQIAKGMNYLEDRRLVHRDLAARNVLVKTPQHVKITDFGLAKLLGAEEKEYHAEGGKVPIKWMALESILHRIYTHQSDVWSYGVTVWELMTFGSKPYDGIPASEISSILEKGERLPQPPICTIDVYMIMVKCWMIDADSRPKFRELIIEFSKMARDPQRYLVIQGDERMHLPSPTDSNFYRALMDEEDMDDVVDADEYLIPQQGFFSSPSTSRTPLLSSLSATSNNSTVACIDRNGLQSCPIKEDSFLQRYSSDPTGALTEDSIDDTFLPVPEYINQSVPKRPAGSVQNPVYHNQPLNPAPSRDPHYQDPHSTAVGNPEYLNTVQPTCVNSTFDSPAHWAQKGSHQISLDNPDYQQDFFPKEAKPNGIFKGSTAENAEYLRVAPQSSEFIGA
Assay: EGFR assay (cellular ELISA, NIH 3T3/C7 cells)
Type: cell-based
Design: expressed in transfected cells; host or cells: NIH 3T3/C7
Conditions: read-out: cell EGF IC50
observed property: IC50

See these solved cases before continuing.
structure smiles: COc1c(C(C)C)cc(/C=C2/C(=O)Nc3ncccc32)cc1C(C)C
IC50: > 100 µM

structure smiles: NC(=O)CCc1c(/C=C2\C(=O)Nc3ccccc32)[nH]c2c1CCCC2
IC50: > 100 µM

Then this compound:
[in] Dear colleague, I am looking for the recorded IC50 of the following compound: `Cc1c(/C=C2\C(=O)Nc3ccc(N)cc32)[nH]c2ccccc12`
[out] > 100 µM

* * *

Molecular target: UniProtKB P00533
Assay: EGFR assay (cellular ELISA, NIH 3T3/C7 cells)
Format: cell-based
Design: expressed in transfected cells; host or cells: NIH 3T3/C7
Conditions: read-out: cell EGF IC50
observed property: pIC50
# log scale: pIC50 equals minus log10 of the concentration in mol/L

These solved cases illustrate the format of a correct answer.
molecule: COc1c(C(C)C)cc(/C=C2/C(=O)Nc3ccc(C(C)=O)cc32)cc1C(C)C [Example 5]
reported result: 4.67
//
molecule: COc1ccc(/C=C2/C(=O)Nc3cc(NC(C)=O)ccc32)cc1-c1cccs1 [Example 31]
reported result: 4.53
//
molecule: COc1c(C(C)C)cc(/C=C2/C(=O)Nc3cc(O)ccc32)cc1C(C)C [Example 4]
reported result: 4.70

Now look at this one.
[in] I am curious: what pIC50 value has been reported for COc1cc(C)c(/C=C2/C(=O)Nc3ccc(Br)cc32)cc1C(C)C [Example 36] ?
[out] 4.18

* * *

Target: UniProtKB P09619
Experiment: Biochemical PDGFR assay (ELISA, PDGFR-β expressing NIH 3T3 cell lysate)
Conditions: read-out: bio PDGF IC50
observed property: IC50

Sample records with IC50:
compound: Cc1c(/C=C2\C(=O)Nc3ccccc32)[nH]c2ccccc12
observed property: IC50
reported result: > 100 µM
--
compound: Cc1cccc2c1/C(=C/c1ccc3c(c1)CCC(C)(C)O3)C(=O)N2
observed property: IC50
reported result: > 100 µM
--
compound: CCOC(=O)c1c(C)[nH]c(/C=C2\C(=O)Nc3ccc(S(=O)(=O)NC)cc32)c1CCCN1CCOCC1
observed property: IC50
reported result: > 100 µM
--
compound: CN(C)S(=O)(=O)c1ccc2c(c1)/C(=C/c1cc3ccccc3[nH]1)C(=O)N2
observed property: IC50
reported result: > 100 µM
--
compound: Cc1c(/C=C2\C(=O)Nc3ccc(S(N)(=O)=O)cc32)[nH]c2ccccc12 [Example 153]
observed property: IC50
reported result: > 100 µM

Kindly review the next compound as well.
[in] Can you look up the measured IC50 of CNS(=O)(=O)c1ccc2c(c1)C(=Cc1[nH]c3ccccc3c1C)C(=O)N2 (racemic) for me?
[out] > 100 µM

* * *

Target: UniProtKB P00533
Assay: EGFR assay (cellular ELISA, NIH 3T3/C7 cells)
Assay type: cell-based
Set-up: expressed in transfected cells; host or cells: NIH 3T3/C7
Details: read-out: cell EGF IC50
Experimental: EGF Receptor kinase activity in cells genetically engineered to express human EGF-R can be measured as described below: Materials and Reagents. • a. […] 05-101 (UBI) (a monoclonal antibody recognizing an EGFR extracellular domain). • c. Anti-phosphotyosine antibody (anti-Ptyr) (polyclonal). • d. […] Assay Procedures. • 1. […] The maximal phosphotyrosine signal is determined by subtracting the value of the negative controls from the positive controls. […]
pIC50: −log10 of the molar value.
observed property: pIC50

Worked examples follow.
structure smiles: CN(C)CCCc1c(/C=C2\C(=O)Nc3ccccc32)[nH]c2c1CCCC2
tested target: UniProtKB P00533
reported result: < 4.00

structure smiles: O=C(O)CCc1c(/C=C2\C(=O)Nc3ccc(Cl)cc32)[nH]c2c1CCCC2
tested target: UniProtKB P00533
reported result: < 4.00

// switching to the query compound
[in] Can you look up the measured pIC50 of `COc1ccc(/C=C2/C(=O)Nc3ncccc32)cc1C1CCCC1` for me?
[out] < 4.00

* * *

pIC50: recorded values
Molecular target: PDGFR-β (Homo sapiens)
Sequence (P09619 33-1106): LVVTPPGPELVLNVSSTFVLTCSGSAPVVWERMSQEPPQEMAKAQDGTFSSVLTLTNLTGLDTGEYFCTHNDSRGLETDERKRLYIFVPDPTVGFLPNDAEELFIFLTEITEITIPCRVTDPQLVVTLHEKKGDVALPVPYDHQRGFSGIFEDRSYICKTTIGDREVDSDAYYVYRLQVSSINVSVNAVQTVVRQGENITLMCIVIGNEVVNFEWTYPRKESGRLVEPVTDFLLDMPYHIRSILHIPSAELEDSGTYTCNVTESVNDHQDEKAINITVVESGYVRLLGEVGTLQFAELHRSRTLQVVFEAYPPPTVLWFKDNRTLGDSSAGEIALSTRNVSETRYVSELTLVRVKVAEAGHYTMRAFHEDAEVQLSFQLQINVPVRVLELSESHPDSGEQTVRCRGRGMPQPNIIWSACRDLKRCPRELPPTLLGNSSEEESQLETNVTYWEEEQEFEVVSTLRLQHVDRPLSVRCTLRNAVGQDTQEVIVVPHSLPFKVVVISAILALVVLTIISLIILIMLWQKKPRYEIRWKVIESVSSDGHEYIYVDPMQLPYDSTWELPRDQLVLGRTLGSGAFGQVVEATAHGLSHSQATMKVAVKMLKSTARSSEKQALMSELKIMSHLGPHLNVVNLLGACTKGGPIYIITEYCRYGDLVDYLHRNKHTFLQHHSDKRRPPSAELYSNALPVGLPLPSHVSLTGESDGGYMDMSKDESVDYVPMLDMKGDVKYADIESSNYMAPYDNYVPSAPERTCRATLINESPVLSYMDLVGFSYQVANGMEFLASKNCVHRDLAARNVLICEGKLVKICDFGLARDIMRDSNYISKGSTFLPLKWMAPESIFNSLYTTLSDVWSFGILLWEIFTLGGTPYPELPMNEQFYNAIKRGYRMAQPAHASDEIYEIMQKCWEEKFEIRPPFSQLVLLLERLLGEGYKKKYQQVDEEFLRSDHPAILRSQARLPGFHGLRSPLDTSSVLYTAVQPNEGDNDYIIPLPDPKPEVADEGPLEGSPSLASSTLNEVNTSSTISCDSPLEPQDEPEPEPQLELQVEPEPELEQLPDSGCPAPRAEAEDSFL
Assay: Biochemical PDGFR assay (ELISA, PDGFR-β expressing NIH 3T3 cell lysate)
Details: read-out: bio PDGF IC50
In simple prose, pIC50 is minus the logarithm base ten of a concentration in moles per litre.

Check out these entries, answers already filled in.
structure smiles: COc1cccc(-c2ccc3c(c2)NC(=O)/C3=C\c2[nH]cc(C)c2CCC(=O)O)c1
reported result: 6.11

structure smiles: Cc1c(/C=C2\C(=O)Nc3ccc(C(=O)O)cc32)[nH]c2ccccc12
reported result: 5.08

structure smiles: Cc1c[nH]c(/C=C2\C(=O)Nc3ccc(Cl)cc32)c1CCC(=O)O
reported result: 6.66

structure smiles: CCOC(=O)c1c(C)[nH]c(/C=C2\C(=O)Nc3ccc(OC)cc32)c1CCCN1CCOCC1
reported result: 4.57

structure smiles: CCOC(=O)c1c(C)[nH]c(/C=C2\C(=O)Nc3ccc(S(N)(=O)=O)cc32)c1CCCN1CCOCC1
reported result: 4.82

structure smiles: O=C(O)CCc1c(/C=C2\C(=O)Nc3ccc(Br)cc32)[nH]c2c1CCCC2
reported result: 8.40

Next:
[in] Param item = `Cc1c[nH]c(/C=C2\C(=O)Nc3ccc(Br)cc32)c1CCC(=O)O` ; retrieve measured pIC50.
[out] 6.21
